Record: pKd reported on ERK3 kinase domain (Homo sapiens).
Sequence (Q16659 9-327): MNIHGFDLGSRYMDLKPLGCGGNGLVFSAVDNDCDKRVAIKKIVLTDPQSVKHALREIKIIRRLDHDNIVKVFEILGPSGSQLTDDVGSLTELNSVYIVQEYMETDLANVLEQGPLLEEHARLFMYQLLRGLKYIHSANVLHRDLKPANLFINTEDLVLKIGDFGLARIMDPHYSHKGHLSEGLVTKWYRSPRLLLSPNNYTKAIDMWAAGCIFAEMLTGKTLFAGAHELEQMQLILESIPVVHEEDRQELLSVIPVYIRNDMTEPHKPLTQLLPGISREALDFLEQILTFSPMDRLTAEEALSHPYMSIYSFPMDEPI
pKd: −log10 of the molar value.
measuredEndpoint: pKd

- CN1CCN(c2ccc(Nc3nccc(-c4cnn5ncccc45)n3)cc2C#N)CC1: 7.36
- O=C(c1ccc(Nc2nccc(-c3cc4ccccc4s3)n2)cc1)N1CCC(N2CCCC2)CC1: 5.73

[P] Nc1cccc(-c2cc3c(Oc4cccc(O)c4)ncnc3[nH]2)c1
[Q] CNC(=O)c1nn(C)c2c1C(C)(C)Cc1cnc(Nc3ccc(N4CCN(C)CC4)cc3)nc1-2
Prompt: In the pair P and Q , the larger recorded pKd belongs to which? Bench note: the answer is the label of the chosen record.
Completion: Q
